# target.entity: UGT1A1 (Homo sapiens, UniProt P22309)
# Sequence (P22309 26-533): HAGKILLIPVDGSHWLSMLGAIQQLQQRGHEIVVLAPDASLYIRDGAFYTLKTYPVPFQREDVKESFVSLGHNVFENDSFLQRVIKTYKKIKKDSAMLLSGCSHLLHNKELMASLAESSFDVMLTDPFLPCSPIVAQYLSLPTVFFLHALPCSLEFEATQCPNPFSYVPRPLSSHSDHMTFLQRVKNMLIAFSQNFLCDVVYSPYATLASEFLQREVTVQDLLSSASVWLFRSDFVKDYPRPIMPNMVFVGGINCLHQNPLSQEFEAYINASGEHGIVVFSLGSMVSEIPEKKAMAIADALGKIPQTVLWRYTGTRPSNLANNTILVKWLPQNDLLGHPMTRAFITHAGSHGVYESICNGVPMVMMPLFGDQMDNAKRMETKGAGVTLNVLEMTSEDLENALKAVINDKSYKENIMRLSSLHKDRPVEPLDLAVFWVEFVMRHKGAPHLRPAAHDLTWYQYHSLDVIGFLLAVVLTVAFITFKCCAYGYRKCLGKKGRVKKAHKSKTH
# experiment.summary: Inhibition of raloxifene glucuronidation by recombinant UGT1A1 Supersomes
# test.settings: human, Supersomes with recombinant human UGT1A1, pH 7.5, probe raloxifene 50 μM, formation of glucuronide G1, % of control metabolism, raloxifene G1, UGT1A1; inhibitor 2 μM
metric.name: activity at 15 min, 2 μM (%)
Could you give me the number in %? Just the number is fine.

IN: // map O=C(OC[C@H]1O[C@@H](OC(=O)c2cc(O)c(O)c(OC(=O)c3cc(O)c(O)c(O)c3)c2)[C@H](OC(=O)c2cc(O)c(O)c(OC(=O)c3cc(O)c(O)c(O)c3)c2)[C@@H](OC(=O)c2cc(O)c(O)c(OC(=O)c3cc(O)c(O)c(O)c3)c2)[C@@H]1OC(=O)c1cc(O)c(O)c(OC(=O)c2cc(O)c(O)c(O)c2)c1)c1cc(O)c(O)c(OC(=O)c2cc(O)c(O)c(O)c2)c1 to recorded activity at 15 min, 2 μM (system: UGT1A1 (Homo sapiens, UniProt P22309))
OUT: 71

Ref: patent US20030215462A1
